test: Oral bioavailability in Beagle dog at 0.6 to 1 mg/kg by LC-MS/MS analysis; type: ADME, organism-based, Canis lupus familiaris; details: in vivo
observation-type: bioavailability

Query: bioavailability; subject: C[C@@H]1COCCN1c1cc(-c2ccnn2C)c2ccnc(-c3ccn[nH]3)c2n1
51%

* * *

molecular target: Voltage-gated inwardly rectifying potassium channel KCNH2 (Homo sapiens); assay: Inhibition of recombinant human ERG stably expressed in HEK293 cells at -80 mV by whole cell voltage clamp method
Sequence (Q12809 whole entry): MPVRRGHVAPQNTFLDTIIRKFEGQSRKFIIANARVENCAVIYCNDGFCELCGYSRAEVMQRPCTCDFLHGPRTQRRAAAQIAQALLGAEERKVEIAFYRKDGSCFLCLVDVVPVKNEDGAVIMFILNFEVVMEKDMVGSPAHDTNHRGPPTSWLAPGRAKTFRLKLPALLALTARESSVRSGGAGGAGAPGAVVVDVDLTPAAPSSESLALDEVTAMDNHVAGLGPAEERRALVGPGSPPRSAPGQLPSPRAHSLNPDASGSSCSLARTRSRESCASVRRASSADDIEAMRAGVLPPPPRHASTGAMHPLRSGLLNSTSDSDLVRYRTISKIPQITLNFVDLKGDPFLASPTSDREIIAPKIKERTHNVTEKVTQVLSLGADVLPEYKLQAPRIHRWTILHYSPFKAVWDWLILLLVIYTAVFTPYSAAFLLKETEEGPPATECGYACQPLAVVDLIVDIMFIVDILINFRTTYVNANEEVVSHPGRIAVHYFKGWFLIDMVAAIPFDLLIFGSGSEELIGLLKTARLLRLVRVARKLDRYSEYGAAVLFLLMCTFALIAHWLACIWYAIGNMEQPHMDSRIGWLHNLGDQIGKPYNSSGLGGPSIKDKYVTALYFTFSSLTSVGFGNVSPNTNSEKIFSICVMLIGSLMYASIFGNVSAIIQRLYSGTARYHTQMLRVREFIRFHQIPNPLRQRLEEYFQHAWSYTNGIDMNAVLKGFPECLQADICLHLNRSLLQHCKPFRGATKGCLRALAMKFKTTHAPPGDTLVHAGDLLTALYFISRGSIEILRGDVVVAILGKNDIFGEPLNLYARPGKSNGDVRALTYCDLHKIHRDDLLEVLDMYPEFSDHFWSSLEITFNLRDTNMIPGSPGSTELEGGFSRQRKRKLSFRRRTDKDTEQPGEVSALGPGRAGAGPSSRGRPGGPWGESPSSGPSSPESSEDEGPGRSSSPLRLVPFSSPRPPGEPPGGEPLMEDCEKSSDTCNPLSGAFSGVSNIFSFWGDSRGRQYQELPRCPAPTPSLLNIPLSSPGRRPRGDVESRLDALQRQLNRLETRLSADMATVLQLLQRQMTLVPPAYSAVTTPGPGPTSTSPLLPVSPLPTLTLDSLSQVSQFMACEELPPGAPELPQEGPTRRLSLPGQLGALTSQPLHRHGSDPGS
observation-type: pIC50
Give bare numbers, as −log10 of the molar value.

Query: pIC50; subject: CS(=O)(=O)c1ccc(-c2cc(N3CCOCC3)nc3c(-c4cc[nH]n4)nccc23)cc1
5.24

* * *

test: Volume of distribution at steady state in Beagle dog at 0.3 to 0.5 mg/kg, iv administered as bolus dose by LC-MS/MS analysis; format: ADME, organism-based, Canis lupus familiaris; details: in vivo, read-out: Vdss
observation-type: Vd (L/kg)
Give bare numbers, in L/kg.

Query: Vd; subject: C[C@@H]1COCCN1c1cc(-c2ccnn2C)c2ccnc(-c3ccn[nH]3)c2n1
1

* * *

molecular target: Serine/threonine-protein kinase RIO2 (Homo sapiens, UniProt Q9BVS4)
Sequence (Q9BVS4 whole entry): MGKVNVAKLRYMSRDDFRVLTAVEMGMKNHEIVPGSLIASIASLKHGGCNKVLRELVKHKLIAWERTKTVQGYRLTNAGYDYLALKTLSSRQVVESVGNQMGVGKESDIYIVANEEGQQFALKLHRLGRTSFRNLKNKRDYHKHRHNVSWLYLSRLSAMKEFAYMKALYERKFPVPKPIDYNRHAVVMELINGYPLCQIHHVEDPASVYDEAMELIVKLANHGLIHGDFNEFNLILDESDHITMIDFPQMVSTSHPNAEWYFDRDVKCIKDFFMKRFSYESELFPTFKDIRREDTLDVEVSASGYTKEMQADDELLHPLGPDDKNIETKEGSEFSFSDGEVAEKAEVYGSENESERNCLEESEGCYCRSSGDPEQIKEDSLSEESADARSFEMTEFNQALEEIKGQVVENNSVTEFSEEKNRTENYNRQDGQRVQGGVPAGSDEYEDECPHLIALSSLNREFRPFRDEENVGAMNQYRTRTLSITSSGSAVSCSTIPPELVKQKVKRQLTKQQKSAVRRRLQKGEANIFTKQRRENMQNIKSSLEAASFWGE
observation-type: pKd
One number for each entry, as −log10 of the molar value.

Query: pKd; subject: C[C@@H]1COCCN1c1cc(-c2ccnn2C)c2ccnc(-c3ccn[nH]3)c2n1
6.18

* * *

test: Apparent half life in Beagle dog at 0.3 to 0.5 mg/kg, iv administered as bolus dose by LC-MS/MS analysis; format: ADME, organism-based, Canis lupus familiaris; conditions: in vivo, read-out: t1/2(app) (converted)
observation-type: half-life (h)
One number for each entry, in h.

Query: half-life; subject: C[C@@H]1COCCN1c1cc(-c2ccnn2C)c2ccnc(-c3ccn[nH]3)c2n1
1

* * *

Provide the reported half-life of each item.
experiment: Apparent half life in Wistar rat at 0.3 to 0.5 mg/kg, iv administered as bolus dose by LC-MS/MS analysis; format: ADME, organism-based; settings: in vivo, read-out: t1/2(app) (converted)
Numbers only, in h.

Query: half-life; subject: CS(=O)(=O)c1ccc(-c2cc(N3CCOCC3)nc3c(-c4cc[nH]n4)nccc23)cc1
0.93

Please examine the following record next.
Query: half-life; subject: C[C@@H]1COCCN1c1cc(-c2ccnn2C)c2ccnc(-c3ccn[nH]3)c2n1
1.3

* * *

test: Lipophilicity, log D of the compound in pH 7.5 MeCN/H2O solution by reversed-phase HPLC analysis
observation-type: chromatographic logD
Answers are plain numbers.

Query: chromatographic logD; subject: CS(=O)(=O)c1ccc(-c2cc(N3CCOCC3)nc3c(-c4cc[nH]n4)nccc23)cc1
2.1

* * *

assay: Apparent permeability across apical to basolateral side in human Caco2 cells at 2 uM measured after 2 hrs by LC-MS/MS analysis; details: Caco-2
observation-type: Papp A→B at 2 h, 2 µM (×10⁻⁶ cm/s)
Give bare numbers, in ×10⁻⁶ cm/s.

Query: Papp A→B at 2 h, 2 µM; subject: CS(=O)(=O)c1ccc(-c2cc(N3CCOCC3)nc3c(-c4cc[nH]n4)nccc23)cc1
10.2

* * *

Target: Cyclin-G-associated kinase (Homo sapiens)
Sequence (O14976 whole entry): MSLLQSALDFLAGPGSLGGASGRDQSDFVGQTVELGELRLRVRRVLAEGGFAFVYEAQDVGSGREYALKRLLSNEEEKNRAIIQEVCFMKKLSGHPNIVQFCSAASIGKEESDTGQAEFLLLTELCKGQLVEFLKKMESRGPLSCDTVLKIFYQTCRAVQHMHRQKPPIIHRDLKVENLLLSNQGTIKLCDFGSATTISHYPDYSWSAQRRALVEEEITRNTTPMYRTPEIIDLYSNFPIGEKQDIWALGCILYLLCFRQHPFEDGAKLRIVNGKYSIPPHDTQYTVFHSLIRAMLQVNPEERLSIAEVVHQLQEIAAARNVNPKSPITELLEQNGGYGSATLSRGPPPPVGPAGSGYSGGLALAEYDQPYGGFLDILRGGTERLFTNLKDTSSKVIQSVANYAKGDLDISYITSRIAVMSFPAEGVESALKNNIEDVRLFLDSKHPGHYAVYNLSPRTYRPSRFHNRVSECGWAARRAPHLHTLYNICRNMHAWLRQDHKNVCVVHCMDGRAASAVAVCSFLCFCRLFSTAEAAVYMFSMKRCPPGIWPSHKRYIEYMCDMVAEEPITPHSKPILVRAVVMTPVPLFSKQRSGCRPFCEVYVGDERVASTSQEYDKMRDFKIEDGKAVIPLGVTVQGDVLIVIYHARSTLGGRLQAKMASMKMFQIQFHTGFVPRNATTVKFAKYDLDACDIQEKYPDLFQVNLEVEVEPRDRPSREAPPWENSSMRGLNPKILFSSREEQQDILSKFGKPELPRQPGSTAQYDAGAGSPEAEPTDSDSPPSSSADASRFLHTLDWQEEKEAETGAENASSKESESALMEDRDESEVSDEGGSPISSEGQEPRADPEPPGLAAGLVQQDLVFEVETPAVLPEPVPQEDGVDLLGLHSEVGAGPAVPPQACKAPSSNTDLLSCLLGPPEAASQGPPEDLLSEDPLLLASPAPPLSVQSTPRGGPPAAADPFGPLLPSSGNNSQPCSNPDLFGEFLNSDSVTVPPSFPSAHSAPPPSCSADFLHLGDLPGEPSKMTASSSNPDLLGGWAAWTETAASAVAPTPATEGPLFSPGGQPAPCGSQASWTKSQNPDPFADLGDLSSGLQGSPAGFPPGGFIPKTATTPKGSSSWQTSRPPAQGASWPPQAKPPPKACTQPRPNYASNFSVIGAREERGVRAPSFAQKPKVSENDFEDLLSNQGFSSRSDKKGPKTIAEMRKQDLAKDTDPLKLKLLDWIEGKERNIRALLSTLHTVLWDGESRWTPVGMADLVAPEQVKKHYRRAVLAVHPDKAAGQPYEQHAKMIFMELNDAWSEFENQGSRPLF
observation-type: pKd
Answers are plain numbers, as −log10 of the molar value.

Query: pKd; subject: C[C@@H]1COCCN1c1cc(-c2ccnn2C)c2ccnc(-c3ccn[nH]3)c2n1
6.24
